- System: BG505, cladeA HIV-1
- protocolDescription: Single-round pseudovirus infection inhibition (luciferase), BG505 Env
- Format: cell-based
- runConditions: Cf2Th target cells expressing CD4 and CCR5
observationType: IC50

Given the compound CNCc1ccc2c(c1)C[C@H](CN=C(N)N)[C@H]2NC(=O)C(=O)Nc1ccc(Cl)c(F)c1.O=C(O)C(F)(F)F.O=C(O)C(F)(F)F [BNM-III-170] , write its reported IC50.
> 300 µM
